test: yeast display, Sf9 membrane polyspecificity reagent, FACS + sequencing; frameworks hold sequencing errors
metric: polyreactivity (PSR sort gate)

{"residues": "QVQLGESGGVLVQAGGSLSLSCAASGNIFGRYAMGWYRQAPGKEWELVAANTRSAGSTYYADSVKGRFTISRDNEKTTVYFQMNSLKPEDTAVYYCAAAHWGYAYRRYGYGGQGTQVTVSS", "metric": "polyreactivity (PSR sort gate)", "endpoint-result": "high polyreactivity"}
{"residues": "QVQRVESGGGLVQAGGSLRLSCAASGSIRGYAMGWYRQAPVKERELVAAISWRGGSTYYADSVKGRFTISRDNAKNTVYLQMNSLKPEDTAVYYCATKGYPHVSTWMDSWGQGTQVTVSS", "metric": "polyreactivity (PSR sort gate)", "endpoint-result": "low polyreactivity"}
{"residues": "QVQLVESGGALVQAGGSLRLSCAASGSTFRKYSMGWYRQAPGKERELVAVITKSGGSTYYADSVKGRFTISRDNAKNTVYLQMNSLKPEDTAVYYCAARRGGARHDYWGQGTQVTVSS", "metric": "polyreactivity (PSR sort gate)", "endpoint-result": "high polyreactivity"}
{"residues": "QVQLVESGGGLVQAGGSLRLSCAASGFITWGNAMGWYRQAPGKERELVAAISWRDARTYYADSVKGRFTISRDNAKNTVYLQMNSLKPEDTAVYYCNAVTAYVSRNLRGYRWFDYWGQGTQVTVSS", "metric": "polyreactivity (PSR sort gate)", "endpoint-result": "low polyreactivity"}
{"residues": "QVQLVESGGGLVQAGGSLRLSCAASGSIFGPYAMGWYRQAPGKERELVAAITWSGDSTYYADSVKGRFTISRDNAKNTVYLQMNSLKPEDTAVYYCAAETFIWGQGTQVTVSS", "metric": "polyreactivity (PSR sort gate)", "endpoint-result": "low polyreactivity"}
{"residues": "QDQLVESGGGLVQAGRSLRLSCAASGYTFRFNAMGWYRQAPGKEREFVAAIDFGGAGTYYADSVKGRFTISRDNAKNTVSLQMNSLKPEDTAVYYCNARDGVTTEFDYWGQGTQVNVSS", "metric": "polyreactivity (PSR sort gate)", "endpoint-result": "low polyreactivity"}
{"residues": "QVQLVESGGGLVQAGGSLRLSCAASGRILRFYAMGWYRQAPGKERELVATISRSGGSTYYAESVKGRVTISRDNAKNTVDLQMNSLKPEDTAVDYCNAKFKGVSYKMDYWGQGTQVTVSS", "metric": "polyreactivity (PSR sort gate)", "endpoint-result": "high polyreactivity"}
{"residues": "QVQLRESGAGGRQPAPELLGERQYFYWSADGLVSQAPGKEREFVAGIDRGTITNYADSVRGRFTISRDNAKNTVFRQMNSLKPEDTAVYYCAVPAYGDPRSYYWGQGTHVTVSS", "metric": "polyreactivity (PSR sort gate)", "endpoint-result": "high polyreactivity"}
{"residues": "QVQLVESGGGLVQAGGSLRLSCAASGRTFYPYAMGWYRQAPGKERELVAAISSGGSTTYADSVKGRFTISRDNAKNTVYLQMNSLKPEDTAVYYCAVYGTERLAFDYWGQGTQVTVSS", "metric": "polyreactivity (PSR sort gate)", "endpoint-result": "low polyreactivity"}
{"residues": "QVQLVESGGGLVQAGGSLRLSCAASGRIFRANAMGWSRQAPGKERELVAAISTSGGSTTYADSVKGRFTISRDNSKNTVYLQMNSLKPEDTAVYYCAVDSWLKWRDKWVIRHDYWGQGTQVTVSS", "metric": "polyreactivity (PSR sort gate)", "endpoint-result": "high polyreactivity"}
{"residues": "QVQLVESCGGLVQAGGSLRLSCAASGSIIFPYALGWYRQAPGKERELVAAISWSGGRTYYADSVKGRFTISRDNAKNTVYLQMNSLKPEDTAVYYCAADGYPYFYGDFDYWGQGTQVNVSS", "metric": "polyreactivity (PSR sort gate)", "endpoint-result": "high polyreactivity"}

The reported numbers originate from the nanobody polyreactivity screen of Harvey et al. (2022).
